As shown below, each of these molecules has a reported AUC of viability dose-response curve value.
# Tested on: NOMO1
# RUN DESCRIPTION: AUC of viability dose-response curve (% viability x log10 dose units); higher = less sensitive
# EXPERIMENTAL PARAMETERS: RPMI 5 mM glucose + 10% FBS; 48 h

smi=COC1=C2OC(=O)\C=C/C2=CC3=C1OC=C3 val=451
smi=Nc1nc(Cl)nc2c1ncn2[C@H]1C[C@H](O)[C@@H](CO)O1 val=270

Turning now to a further record.
Would you please give the reported AUC of viability dose-response curve of `C[C@@H]1[C@H](O)[C@@H](C)/C=C/C=C/C=C/C=C/C=C/C=C/C=C/[C@H](O[C@@H]2O[C@H](C)[C@@H](O)[C@H](N)[C@@H]2O)C[C@@H]2O[C@](O)(C[C@@H](O)C[C@@H](O)[C@H](O)CC[C@@H](O)C[C@@H](O)CC(=O)O[C@H]1C)C[C@H](O)[C@H]2C(=O)O` with NOMO1?
452

---

# System: P12-Ichikawa
# RUN DESCRIPTION: cell viability relative to DMSO control; higher = less cytotoxic
# EXPERIMENTAL PARAMETERS: RPMI 5 mM glucose + 10% FBS; 48 h; 0.0211 µM
REPORTED PROPERTY: cell viability (%)
Give the number; % is assumed, so skip it.

Known results for compounds:
smi=CC/1=C(/N2[C@H](SC1)[C@H](NC(=O)[C@H](N)\C3=C\C\C=C/C3)C2=O)C(O)=O readout_unit=% val=116
smi=C#C[C@]1(O)CC[C@H]2[C@@H]3CCc4cc(O)ccc4[C@H]3CC[C@@]21C readout_unit=% val=93.6
smi=Cn1cnc2c1c(=O)[nH]c(=O)n2C readout_unit=% val=97.6
smi=CN(NC(=O)CC(=O)NN(C)C(=S)c1ccccc1)C(=S)c1ccccc1 readout_unit=% val=90.8

Turning now to a further record.
Look up and report measured cell viability for this entry: `O=C(c1ccc(Nc2nccc(-c3cc4ccccc4s3)n2)cc1)N1CCC(N2CCCC2)CC1`
117

---

# Tested on: NOMO1
# RUN DESCRIPTION: cell viability relative to DMSO control; higher = less cytotoxic
# EXPERIMENTAL PARAMETERS: HPLM + 10% dialyzed FBS; 48 h; 5.12 µM
REPORTED PROPERTY: cell viability (%)
Give the number; % is assumed, so skip it.

Known results for molecules:
molecule="OC[C@H]1OCC(O1)[N@@]2C=CC(N)=NC2=O (stereo partly drawn)" reported_property="cell viability" val=121
molecule=CC(C)C1=C(O)C=C(O)C(=C1)C/2=N/NC(=O)N2C3=CC4=C(C=C3)[N](C)C=C4 reported_property="cell viability" val=20.7
molecule=C\C1=C(\C=C(C#N)/C(=O)N1)C2=C[N]3C=CN=C3C=C2 reported_property="cell viability" val=97.9
molecule=NC/1=N/C2=C([NH]C=N2)C(=S)N1 reported_property="cell viability" val=126

Look up and report measured cell viability for this entry: Nc1nc(N)c2nc(CNc3ccc(C(=O)NC(CCC(=O)O)C(=O)O)cc3)cnc2n1 (stereo not drawn)
57.4

Look up and report measured cell viability for this entry: `C[C@@H]1[C@H](O)[C@@H](C)/C=C/C=C/C=C/C=C/C=C/C=C/C=C/[C@H](O[C@@H]2O[C@H](C)[C@@H](O)[C@H](N)[C@@H]2O)C[C@@H]2O[C@](O)(C[C@@H](O)C[C@@H](O)[C@H](O)CC[C@@H](O)C[C@@H](O)CC(=O)O[C@H]1C)C[C@H](O)[C@H]2C(=O)O`
152

Look up and report measured cell viability for this entry: `NC(=O)c1ccc(I)c([N+](=O)[O-])c1`
126

Look up and report measured cell viability for this entry: `CC(C)C(=O)Nc1ccc([N+](=O)[O-])c(C(F)(F)F)c1`
39

---

# Tested on: P12-Ichikawa
# RUN DESCRIPTION: AUC of viability dose-response curve (% viability x log10 dose units); higher = less sensitive
# EXPERIMENTAL PARAMETERS: HPLM + 10% dialyzed FBS; 48 h
REPORTED PROPERTY: AUC of viability dose-response curve
Respond with the number and no other words.

Look up and report measured AUC of viability dose-response curve for this entry: `COc1cc(OC)c(/C=C/[S+](=O)([O-])Cc2ccc(OC)c(NCC(=O)[O][Na])c2)c(OC)c1`
271

Look up and report measured AUC of viability dose-response curve for this entry: `C\C1=C(\C=C(C#N)/C(=O)N1)C2=C[N]3C=CN=C3C=C2`
419

Look up and report measured AUC of viability dose-response curve for this entry: `O=C(Nc1ccccc1-c1cn2c(CN3CCNCC3)csc2n1)c1cnc2ccccc2n1`
388

Look up and report measured AUC of viability dose-response curve for this entry: `CC(=O)O[C@H]1C[C@@H]2CC[C@@H]3[C@H](CC[C@@]4(C)[C@H]3C[C@H]([N+]3(C)CCCCC3)[C@@H]4OC(C)=O)[C@@]2(C)C[C@@H]1N1CCCCC1`
464

Look up and report measured AUC of viability dose-response curve for this entry: `OC(Cn1cncn1)(Cn1cncn1)c1ccc(F)cc1F`
448

---

# Tested on: P12-Ichikawa
# RUN DESCRIPTION: cell viability relative to DMSO control; higher = less cytotoxic
# EXPERIMENTAL PARAMETERS: RPMI 5 mM glucose + 10% dialyzed FBS; 48 h; 1.71 µM
As shown below, each of these compounds has a reported cell viability value.
Give the number; % is assumed, so skip it.

smi=NC/1=N/C2=C([NH]C=N2)C(=S)N1 val=110
smi=COC1=C2OC(=O)\C=C/C2=CC3=C1OC=C3 val=100
smi=O=C(Nc1c(Cl)cncc1Cl)c1ccc(OC(F)F)c(OCC2CC2)c1 val=111

Would you please give the reported cell viability of `C[C@]12CCC(=O)C=C1CC[C@@H]1[C@@H]2CC[C@@]2(C)[C@H]1CC[C@]2(C)O` with P12-Ichikawa?
106

Would you please give the reported cell viability of `O=C(Nc1ccc(F)c(C(F)(F)F)c1)Nc1nnc(-c2ccncc2)s1` with P12-Ichikawa?
115

---

# Test system: SEM cells
# RUN DESCRIPTION: cell viability relative to DMSO control; higher = less cytotoxic
# EXPERIMENTAL PARAMETERS: RPMI 5 mM glucose + 10% FBS; 48 h; 0.569 µM
Threshold 90%: cell viability strictly smaller gives True, otherwise False.

molecule="O=C(O)C1=NC(C(=O)O)CC(/C=C/N2c3cc(O)c(OC4OC(CO)C(O)C(O)C4O)cc3CC2C(=O)O)=C1 (centres undefined)" qualitative_label=False
molecule="COc1ccc(C2CNC(=O)C2)cc1OC1CCCC1 (centres undefined)" qualitative_label=False

Please check: cell viability for `Cn1c(CNc2ccc(C(=N)N)cc2)nc2cc(C(=O)N(CCC(=O)O)c3ccccn3)ccc21` , strictly under 90% or not?
False

Please check: cell viability for `COc1cc2c(cc1OC)CC(=O)N(CCCN(C)C[C@H]1Cc3cc(OC)c(OC)cc31)CC2.Cl` , strictly under 90% or not?
False

Please check: cell viability for `C\C1=C(\C=C(C#N)/C(=O)N1)C2=C[N]3C=CN=C3C=C2` , strictly under 90% or not?
False

Please check: cell viability for `O=C(NC[C@H](O)CO)c1ccncc1Nc1ccc(I)cc1F` , strictly under 90% or not?
True

Please check: cell viability for `CC1(C)O[C@@H]2C[C@H]3[C@@H]4CCC5=CC(=O)C=C[C@]5(C)[C@H]4[C@@H](O)C[C@]3(C)[C@]2(C(=O)CO)O1` , strictly under 90% or not?
True

---

# System: SEM cells
# RUN DESCRIPTION: cell viability relative to DMSO control; higher = less cytotoxic
# EXPERIMENTAL PARAMETERS: RPMI 5 mM glucose + 10% dialyzed FBS; 48 h; 15.4 µM
As shown below, each of these compounds has a reported cell viability value.
Give the number; % is assumed, so skip it.

Known results for compounds:
compound=NC/1=N/C2=C([NH]C=N2)C(=S)N1 tested_target="SEM cells" reported_property="cell viability" readout_unit=% val=33.5
compound=COc1cc(OC)c(/C=C/[S+](=O)([O-])Cc2ccc(OC)c(NCC(=O)[O][Na])c2)c(OC)c1 tested_target="SEM cells" reported_property="cell viability" readout_unit=% val=7.92
compound="O=C(O)C1=NC(C(=O)O)CC(/C=C/N2c3cc(O)c(OC4OC(CO)C(O)C(O)C4O)cc3CC2C(=O)O)=C1 (stereo not drawn)" tested_target="SEM cells" reported_property="cell viability" readout_unit=% val=105
compound=COc1cc2c(cc1OC)CC(=O)N(CCCN(C)C[C@H]1Cc3cc(OC)c(OC)cc31)CC2.Cl tested_target="SEM cells" reported_property="cell viability" readout_unit=% val=113

Would you please give the reported cell viability of `Cc1ccc([S+](=O)([O-])N[C@@H](Cc2ccccc2)C(=O)CCl)cc1` with SEM cells?
94.3

Would you please give the reported cell viability of `FC(F)c1nc2ccccc2n1-c1nc(N2CCOCC2)nc(N2CCOCC2)n1` with SEM cells?
54.3

Would you please give the reported cell viability of `O=C(Nc1ccc(F)c(C(F)(F)F)c1)Nc1nnc(-c2ccncc2)s1` with SEM cells?
125

Would you please give the reported cell viability of `C[S+]([O-])(=O)C1=CC=C(C=C1)C/2=C(/C(=O)OC2)C3=CC=CC=C3` with SEM cells?
75

Would you please give the reported cell viability of `COc1ccc(C(C)=O)c(O)c1` with SEM cells?
123

Would you please give the reported cell viability of OC1CCC(Nc2ncc3nc(Nc4c(F)cc(F)cc4F)n([C@@H]4CCOC4)c3n2)CC1 (stereo partly drawn) with SEM cells?
84.3
